- Test system: prostaglandin E2-induced hyperalgesia
- Assay procedure: rat paw pressure test, prostaglandin E2-induced hyperalgesia
- Run conditions: synthetic peptides compared with natural ENPAK-k, similar conditions
Bridges are numbered along the chain shown (N, C = ends). Where no end group is shown, it is not given here. [ ]: non-standard residue; d: D form. pGlu = O=C1CC[C@@H](C(=O)O)N1

{"Substance": "SEQ ID NO: 6: one of 4 possible sequences pGlu-Phe-Ser-Pro-Glu-Asn-Cys-Lys/Gln-Gly-Glu-Ser-Lys/Gln-Pro-Cys; synthetic peptide (XFSPENCKGESQPC; Synthetically generated peptide)", "analgesic activity": "inactivity"}
{"Substance": "SEQ ID NO: 7: one of 4 possible sequences pGlu-Phe-Ser-Pro-Glu-Asn-Cys-Lys/Gln-Gly-Glu-Ser-Lys/Gln-Pro-Cys; synthetic peptide ([pGlu]FSPENCKGESKPC; disulfide 7-14)", "analgesic activity": "inactivity"}

FYI, the data here is from patent US9109041B2.
